Test system: T1, Bovine Alpha-s1-casein (SEQ ID NO: 1)
T1 chain: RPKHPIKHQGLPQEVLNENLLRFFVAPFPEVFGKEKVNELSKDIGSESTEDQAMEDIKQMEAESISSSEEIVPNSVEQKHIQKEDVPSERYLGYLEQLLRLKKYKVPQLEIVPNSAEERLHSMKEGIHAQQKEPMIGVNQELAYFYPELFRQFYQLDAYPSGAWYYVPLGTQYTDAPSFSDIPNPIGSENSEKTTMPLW
Measurement type: phosphorylation at S137, MS grade, in vitro kinase reaction

Protein	Obs value
PrkC (Bacillus subtilis) (SEQ ID NO: 8) (protein) MSGPVPSRARVYTDVNTHRPREYWDYESHVVEWGNQDDYQLVRKLGRGKYSEVFEAINITNNEKVVVKILKPVKKKKIKREIKILENLRGGPNIITLADIVKDPVSRTPALVFEHVNNTDFKQLYQTLTDYDIRFYMYEILKALDYCHSMGIMHRDVKPHNVMIDHEHRKLRLIDWGLAEFYHPGQEYNVRVASRYFKGPELLVDYQMYDYSLDMWSLGCMLASMIFRKEPFFHGHDNYDQLVRIAKVLGTEDLYDYIDKYNIELDPRFNDILGRHSRKRWERFVHSENQHLVSPEALDFLDKLLRYDHQSRLTAREAMEHPYFYTVVKDQARMGSSSMPGGSTPVSSANMMSGISSVPTPSPLGPLAGSPVIAAANPLGMPVPAAAGAQ	+
PrkD (Bacillus subtilis 168 | BSU_02030) (SEQ ID NO: 7) (protein) MALKLLKKLLFDRPLKNGVILNHQYKIEECLGMGGYGLVYLCTDILAQTPYVLKQLRPTKAKKEKEKVRFQQEIKLLKNIHHPQIPGFIDEFIIDGQAYYVMQFIEGENIEELLFFRKQPFTELMALQLISQLLEIIEYLHDRLIFHSDIRTPNIIINDGRLCLIDFGLAKQLTPEEMEEIKVRKQDDFFDLGETLLFLLYSQYKGKKKKNGTWLEELTLTKEVTLLLKRLLGIEEEYQHTASIREDLNRAIQSVT	+
YabT (GenBank: SPU13583.1) (SEQ ID NO: 5) (protein) MLNWTPKLQSLSTPFAKLSTAAITPTGPAIREATLQFEKYAQEGACWQMMNDALTSLACSLKPGTTIKGKWNGNTYTLRKQLGKGANGIVYLAETSDGHVALKVSDDSLSITSEVNVLKSFSKAQSVTMGPSFFDTDDAYIPSANTKVSFYAMEYIKGPLLLKYVSDKGAEWIPVLMIQLLSSLSVLHQQGWIFGDLKPDNLIVTGPPARIRCIDVGGTTKEGRAIKEYTEFYDRGYWGYGTRKAEPSYDLFAVAMIMINSVHKKEFKKTNQPKEQLRSLIEGNPLLQKYKKALFSALNGDYQSADEMKKDMLDAGQKAAQRKQPIKASPQPATRQRQQKPRQGKITKTRYTPKQKPAKSGGLFETTLIVISVLALYFAYIIFFLI	+
